- subject.of.test: human glucagon receptor (human, UniProt P47871 26-477)
- experiment.notes: cell-based or functional assay
Starred links: 1 amine or outer side, 2 acyl side, 3 side chain; linkers in the order of their positions; H or OH if unused. Non-standard residues stand in square brackets, D forms with d. No end group written: not given here. NMe2F‑APPA = N-methyl-2-amino-5-(2-fluorophenyl)pentanoic acid, CN([C@@H](CCCc1ccccc1F)C(=O)[*:2])[*:1]; AMCB = 2-amino-5-(4-chloro-2-methylphenyl)pentanoic acid, Cc1cc(Cl)ccc1CCC[C@H](N[*:1])C(=O)[*:2]; 2F,4CF3‑APPA = 2-amino-5-(2-fluoro-4-(trifluoromethyl)phenyl)pentanoic acid; Bip(2'-Et-4'-OMe) = CCc1cc(OC)ccc1-c1ccc(C[C@H](N)C(=O)O)cc1; 2F‑APPA = 2-amino-5-(2-fluorophenyl)pentanoic acid; αMePhe(2-F) = C[C@](N)(Cc1ccccc1F)C(=O)O; hhPhe = N[C@@H](CCCc1ccccc1)C(=O)O; aThr = C[C@H](O)[C@H](N)C(=O)O; Ac5c = NC1(C(=O)O)CCCC1; CNB = not defined here; Aib = CC(C)(N)C(=O)O
result.type: inhibition of cAMP production, 1 µM (pmol/ml/µg prt)

binder	inhibition of cAMP production, 1 µM, pmol/ml/µg prt
H[Ac5c]QGTFTSD[Bip(2'-Et-4'-OMe)][AMCB] [Seq. ID. No. 28: H-(APP)-QGTFTSD-Bip(OMe)-(AMCB)]	3
H[Aib][CNB]GTFTSD[Bip(2'-Et-4'-OMe)][hhPhe] (reading uncertain) [Seq. ID. No. 29: H-Aib-(CNB)-GTFTSD-Bip(OMe)-(APPA)]	14

[1] HSQGTFTSD[Bip(2'-Et-4'-OMe)][2F,4CF3‑APPA] [Seq. ID. No. 49: HSQGTFTSD-Bip(OMe)-(2F, 4CF3-APPA)]
[2] H[Aib][CNB]G[aThr][αMePhe(2-F)][aThr]SD[Bip(2'-Et-4'-OMe)][NMe2F‑APPA] (reading uncertain) [Seq. ID. No. 132: H-Aib-(CNB)-G-T(allo)-(α-Me-2F-Phe)-T(allo)-SD-Bip(OMe)-((NMe)(2F-APPA))]
[3] H[Aib][CNB]G[aThr][αMePhe(2-F)][aThr]SD[Bip(2'-Et-4'-OMe)][2F‑APPA] (reading uncertain) [Seq. ID. No. 116: H-Aib-(CNB)-G-T(allo)-(α-Me-2F-Phe)-T(allo)-SD-Bip(OMe)-(2F-APPA)]
I would appreciate it if you could sort these 3 binders by inhibition of cAMP production, 1 µM, starting from the smallest number. Write the labels in rank order as requested.
3, 1, 2
(3: 0 pmol/ml/µg prt, 1: 2 pmol/ml/µg prt, 2: 4 pmol/ml/µg prt)

Origin of values: patent US20120021972A1
